# assay-target: human ether-à-go-go-related gene (hERG) potassium channel (human);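 further: peak tail current of the secondary pulse compared with the same well before compound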
# Sequence (Q12809 whole entry, looked up): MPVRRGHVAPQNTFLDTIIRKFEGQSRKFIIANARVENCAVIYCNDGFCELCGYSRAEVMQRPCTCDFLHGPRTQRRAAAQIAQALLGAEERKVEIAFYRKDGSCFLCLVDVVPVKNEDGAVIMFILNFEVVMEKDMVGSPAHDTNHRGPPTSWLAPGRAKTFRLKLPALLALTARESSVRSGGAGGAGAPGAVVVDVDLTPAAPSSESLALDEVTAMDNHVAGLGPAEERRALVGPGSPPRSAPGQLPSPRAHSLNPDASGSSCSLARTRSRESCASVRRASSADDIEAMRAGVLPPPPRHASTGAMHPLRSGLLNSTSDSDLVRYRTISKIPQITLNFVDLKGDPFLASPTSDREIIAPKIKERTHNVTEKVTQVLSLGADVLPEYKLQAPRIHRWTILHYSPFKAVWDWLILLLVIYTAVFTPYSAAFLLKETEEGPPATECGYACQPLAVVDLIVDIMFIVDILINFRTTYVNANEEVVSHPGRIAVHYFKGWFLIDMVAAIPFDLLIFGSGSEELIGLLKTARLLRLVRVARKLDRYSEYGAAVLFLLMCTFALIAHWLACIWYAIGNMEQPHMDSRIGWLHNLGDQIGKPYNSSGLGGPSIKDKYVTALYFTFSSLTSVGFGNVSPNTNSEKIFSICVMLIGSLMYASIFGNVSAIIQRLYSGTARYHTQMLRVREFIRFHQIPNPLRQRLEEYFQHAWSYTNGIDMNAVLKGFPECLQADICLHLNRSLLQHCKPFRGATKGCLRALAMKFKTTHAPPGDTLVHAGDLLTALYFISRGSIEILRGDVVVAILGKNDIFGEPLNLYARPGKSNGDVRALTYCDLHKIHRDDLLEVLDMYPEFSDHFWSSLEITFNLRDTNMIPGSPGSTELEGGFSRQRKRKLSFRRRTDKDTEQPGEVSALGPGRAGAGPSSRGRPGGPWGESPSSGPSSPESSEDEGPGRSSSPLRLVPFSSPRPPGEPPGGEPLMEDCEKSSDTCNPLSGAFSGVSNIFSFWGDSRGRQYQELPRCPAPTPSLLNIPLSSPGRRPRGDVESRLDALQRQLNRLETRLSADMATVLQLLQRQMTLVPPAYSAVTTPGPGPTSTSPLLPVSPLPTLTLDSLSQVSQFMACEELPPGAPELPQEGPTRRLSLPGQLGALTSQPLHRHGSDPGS
# run-description: primary screen, population patch clamp on CHO cells stably expressing hERG; higher = less effect of the substance
Out of some 310,000 compounds screened, about 14,000 (4.5%) showed an effect of 50% or more. The effect is printed as a negative number. Shown is part of a subset that was picked to be rich in strong results.
hERG current change (%, negative = inhibition) at 10uM values, listed per item
Report as a plain number; the unit % is understood.

Report hERG current change (%, negative = inhibition) at 10uM, nothing else, for this compound: C=C(C)Cn1c(=O)c2c(nc3n2CC(C)CN3Cc2ccccc2)n(C)c1=O (stereo not drawn)
-65.6

Report hERG current change (%, negative = inhibition) at 10uM, nothing else, for this compound: COC(=O)C1=C(C)NC2=C(C(=O)CC(C)(C)C2)C1c1cnn(C)c1C (stereo not drawn)
15.6

Report hERG current change (%, negative = inhibition) at 10uM, nothing else, for this compound: `O=C(c1ccc(Cl)cc1)N1CCN(C(=O)C2CCCCC2)CC1`
-2.89

Report hERG current change (%, negative = inhibition) at 10uM, nothing else, for this compound: COc1ccc(NC2CCCN(C(=O)c3ccc(C(C)=O)s3)C2)cc1 (stereo not drawn)
16.1

Report hERG current change (%, negative = inhibition) at 10uM, nothing else, for this compound: O=C(NC1CCOCC1)C1CCC(=O)N(Cc2cccc(C(F)(F)F)c2)C1 (stereo not drawn)
13.7

Report hERG current change (%, negative = inhibition) at 10uM, nothing else, for this compound: CC1CN(Cc2ccccc2)c2nc3c(c(=O)n(CC(=O)O)c(=O)n3C)n2C1 (stereo not drawn)
18.8

---
Report hERG current change (%, negative = inhibition) at 10uM, nothing else, for this compound: CC1CCCCC1NC(=O)C1CCN(c2c3c(nc4ncnn24)CCC3)CC1 (stereo not drawn)
4.49

Report hERG current change (%, negative = inhibition) at 10uM, nothing else, for this compound: `Cn1c(=O)n(Cc2ccccc2)c(=O)c2c1nc1n2CCCN1Cc1ccccc1`
-31.1

Report hERG current change (%, negative = inhibition) at 10uM, nothing else, for this compound: `Cc1ccc(C(=O)NCC(=O)OCC(=O)Nc2ccc(Cl)cc2C(F)(F)F)cc1C`
-4.47

Report hERG current change (%, negative = inhibition) at 10uM, nothing else, for this compound: `Cc1nnc2ccc(-c3ccc(NS(C)(=O)=O)cc3)nn12`
-16

Report hERG current change (%, negative = inhibition) at 10uM, nothing else, for this compound: Cc1c(C(=O)NCC2COc3ccccc3O2)oc2ccc(S(=O)(=O)N3CC(C)CC(C)C3)cc12 (stereo not drawn)
12.4

Report hERG current change (%, negative = inhibition) at 10uM, nothing else, for this compound: `CCN(CC)S(=O)(=O)c1cccc(C(=O)Nc2nc3cc4c(cc3s2)OCCO4)c1`
0.652

Report hERG current change (%, negative = inhibition) at 10uM, nothing else, for this compound: `O=C(Nc1ccc2c(c1)CCC2)C1CCN(c2ncccn2)CC1`
20.6

Report hERG current change (%, negative = inhibition) at 10uM, nothing else, for this compound: `O=[N+]([O-])c1ccc(CNc2cccc(Cl)c2)s1`
-28.3

Report hERG current change (%, negative = inhibition) at 10uM, nothing else, for this compound: `CCOC(=O)C1CCN(Cc2ccccc2C)CC1`
0.665

Report hERG current change (%, negative = inhibition) at 10uM, nothing else, for this compound: CC1CN(Cc2ccccc2)c2nc3c(c(=O)n(CC(N)=O)c(=O)n3C)n2C1 (stereo not drawn)
14.5

Report hERG current change (%, negative = inhibition) at 10uM, nothing else, for this compound: `O=C(Nc1ccc2c(c1)CCC2)C1CCN(c2c3c(nc4ncnn24)CCC3)CC1`
-73.1

Report hERG current change (%, negative = inhibition) at 10uM, nothing else, for this compound: CCOC(=O)c1[nH]c(C)c(C(=O)OCC(=O)N(C)C2CCS(=O)(=O)C2)c1C (stereo not drawn)
29

----------
# assay-target: human ether-à-go-go-related gene (hERG) potassium channel (human);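 further: peak tail current of the secondary pulse compared with the same well before compound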
# run-description: primary screen, population patch clamp on CHO cells stably expressing hERG; higher = less effect of the substance
The whole screen tested about 310,000 compounds, of which about 14,000 (4.5%) showed an effect of 50% or more. Effects have a minus sign here. Only a selection was taken, and strong results are over-represented in it overall.
hERG current change (%, negative = inhibition) at 10uM values, listed per item
Report as a plain number; the unit % is understood.

Report hERG current change (%, negative = inhibition) at 10uM, nothing else, for this molecule: `COc1ccc(-c2nc3ccccc3c(=O)n2CCOc2cccc(C)c2C)cc1`
15

---
Report hERG current change (%, negative = inhibition) at 10uM, nothing else, for this molecule: OCCC1CN(C2CCC2)CCN1Cc1ccc(F)c(F)c1 (stereo not drawn)
5.12

Report hERG current change (%, negative = inhibition) at 10uM, nothing else, for this molecule: `CCOc1ccc(C(C)(C)C)cc1S(=O)(=O)Nc1ccncc1`
17

Report hERG current change (%, negative = inhibition) at 10uM, nothing else, for this molecule: `O=C(CCCSc1nc2ccccc2[nH]1)N1CCN(c2ccccc2)CC1`
-60.2

Report hERG current change (%, negative = inhibition) at 10uM, nothing else, for this molecule: COc1cccc(CN2CCN(C3CSCCSC3)CC2CCO)c1 (stereo not drawn)
-13

----------
# assay-target: human ether-à-go-go-related gene (hERG) potassium channel (human);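 further: peak tail current of the secondary pulse compared with the same well before compound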
# run-description: primary screen, population patch clamp on CHO cells stably expressing hERG; higher = less effect of the substance
Out of some 310,000 compounds screened, about 14,000 (4.5%) showed an effect of 50% or more. The effect is printed as a negative number. For the sample, strong results were picked, then their nearest neighbours and some compounds at random.
attribute-measured: hERG current change (%, negative = inhibition) at 10uM (%)
Report as a plain number; the unit % is understood.

Solved cases below.
Report hERG current change (%, negative = inhibition) at 10uM, nothing else, for this compound: CNC(=O)c1c(NC(NC(=O)c2ccco2)C(=O)c2ccc(Cl)cc2)sc2c1CCCC2 (centres unmarked)
-20.3

Report hERG current change (%, negative = inhibition) at 10uM, nothing else, for this compound: `COc1ccc(S(=O)(=O)N(CC(=O)NC2CC2)c2ccc(C)cc2)cc1`
-0.125

Report hERG current change (%, negative = inhibition) at 10uM, nothing else, for this compound: Cc1ccc(C(=O)N/C(=C/c2cccs2)C(=O)NCC2CCCO2)cc1 (centres unmarked)
-9.01

Report hERG current change (%, negative = inhibition) at 10uM, nothing else, for this compound: `O=C1c2ccccc2C(=O)N1CSc1nnnn1-c1ccccc1`
-3.73

Report hERG current change (%, negative = inhibition) at 10uM, nothing else, for this compound: `O=C1c2ccccc2C(=O)N1CCCCSc1nnnn1-c1ccccc1`
-51.7

Report hERG current change (%, negative = inhibition) at 10uM, nothing else, for this compound: Cc1cccc(C(=O)C2CCOC(C)(C)C2)c1 (centres unmarked)
13

Report hERG current change (%, negative = inhibition) at 10uM, nothing else, for this compound: `COc1ccccc1N1CCN(C(=O)c2sc3nc(-c4ccc(F)cc4)cn3c2C)CC1`
-34

Report hERG current change (%, negative = inhibition) at 10uM, nothing else, for this compound: `Cc1c(C(=O)Nc2ccncc2)sc2nc(-c3ccc(F)cc3)cn12`
-8.24

Report hERG current change (%, negative = inhibition) at 10uM, nothing else, for this compound: `Cc1ccc(C(=O)N/C(=C/c2cccs2)C(=O)NCc2ccco2)cc1`
-15.8

Report hERG current change (%, negative = inhibition) at 10uM, nothing else, for this compound: `Cn1c(=O)cc(SCC(=O)NCCCN2CCOCC2)c2ccc(Cl)cc21`
-3.15

---
Report hERG current change (%, negative = inhibition) at 10uM, nothing else, for this compound: `O=C(Nc1cccc(Cl)c1)Nc1ccccc1NS(=O)(=O)c1cccs1`
24

Report hERG current change (%, negative = inhibition) at 10uM, nothing else, for this compound: CC(C)C(OC(=O)CN1C(=O)c2ccccc2C1=O)C(=O)NC1CCCC1 (centres unmarked)
18.7

Report hERG current change (%, negative = inhibition) at 10uM, nothing else, for this compound: `CN(Cc1ccccc1)C(=O)CN(Cc1ccccc1)S(C)(=O)=O`
-4.6

Report hERG current change (%, negative = inhibition) at 10uM, nothing else, for this compound: `COCCNC(=O)CSc1cc(=O)n(C)c2cc(Cl)ccc12`
2.04

----------
# assay-target: human ether-à-go-go-related gene (hERG) potassium channel (human);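 further: peak tail current of the secondary pulse compared with the same well before compound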
# run-description: primary screen, population patch clamp on CHO cells stably expressing hERG; higher = less effect of the substance
Hit rate of the full screen: of about 310,000 compounds, about 14,000 (4.5%) showed an effect of 50% or more. The effect is printed as a negative number. This is one part of a sample in which strong results are shown more often than they occur.
attribute-measured: hERG current change (%, negative = inhibition) at 10uM (%)
Report as a plain number; the unit % is understood.

Give reported hERG current change (%, negative = inhibition) at 10uM for `COc1ccc(CC2(CO)CCN(Cc3ccc4nsnc4c3)CC2)cc1` (human ether-à-go-go-related gene (hERG) potassium channel (human))
-58.9

Give reported hERG current change (%, negative = inhibition) at 10uM for `Cc1sc2nc(C3CC3)nc(N3CCN(C(=O)c4ccc(F)cc4)CC3)c2c1C.Cl` (human ether-à-go-go-related gene (hERG) potassium channel (human))
-69.8

Give reported hERG current change (%, negative = inhibition) at 10uM for `COc1ccc(-c2ccc(NC(=O)c3ccco3)cc2)nn1` (human ether-à-go-go-related gene (hERG) potassium channel (human))
5.79

Give reported hERG current change (%, negative = inhibition) at 10uM for `COCCn1nnnc1CN1CCC(Cc2ccccc2)CC1.Cl` (human ether-à-go-go-related gene (hERG) potassium channel (human))
-3.18

Give reported hERG current change (%, negative = inhibition) at 10uM for Cc1ccc(NC(=O)CC2SC(=NCC3CCCO3)NC2=O)cc1Cl (centres unmarked) (human ether-à-go-go-related gene (hERG) potassium channel (human))
-3.57

# ---- query molecule ----
Give reported hERG current change (%, negative = inhibition) at 10uM for `Cc1ccc(Cn2ccc(NC(=O)c3cc(-c4ccc(Br)cc4)on3)n2)cc1` (human ether-à-go-go-related gene (hERG) potassium channel (human))
22.6
